- SUBJECT_OF_TEST: HLA-B*0702 (human)
- EXPERIMENT_SUMMARY: competition with 125I-labelled standard peptide for purified HLA-B*0702, gel filtration
- MEASUREMENT_SETUP: scale: ratio

[
  {
    "BINDER": "MPEGDLVYV (modifications not checked) [PSM 169 …]",
    "binding affinity ratio": 0.0001
  },
  {
    "BINDER": "HPLYDMSLL (modifications not checked) [PSA 94 …]",
    "binding affinity ratio": 0.0018
  },
  {
    "BINDER": "HPQKVTKFML (modifications not checked) [PSA 184 …]",
    "binding affinity ratio": 0.023
  },
  {
    "BINDER": "GPLVCNGVL (modifications not checked) [Kallikrein 215 …]",
    "binding affinity ratio": 0.028
  }
]

The reported measurements were obtained from patent US20070020327A1.
